# Test system: IRAK1;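 note: KINOMEscan kinase panel screen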
# COND: concentration: 1 μM, replicates: in singlicate; n = 1
MEASURED_ATTRIBUTE: %Inh (%)
# output: bare number, implied unit %

Qu. Tell me its %Inh given CCC(=O)c1c(-c2ccccc2)c2cc(Cl)ccc2c(=O)n1Cc1cc(S(C)(=O)=O)n(CC(F)F)n1 as the entry.
Ans. 26

Qu. For the molecule Nc1ncnc2c1ncn2-c1ccc(Cl)cc1 , report %Inh.
Ans. 17

Qu. Annotate the molecule COC(=O)c1c(-c2ccccc2)c2cc(Br)ccc2c(=O)n1Cc1ccc(S(C)(=O)=O)cc1 with its measured %Inh.
Ans. 19

Qu. State, in one line, measured %Inh of Cc1ccc(-c2ccc3c(ccc4sc5c(c43)NC[C@@H](C)N=C5N(C)C)n2)cn1
Ans. 0

Qu. Check the records and state %Inh for Cc1nn2c(=O)cc(N3CCOCC3)nc2n1Cc1cccc(Cl)c1Cl
Ans. 75
